// data source = patent US20260176289A1

Here the recorded pIC50 is given for each entry.
target: KRAS-G12V (Homo sapiens, UniProt P01116, G12V); experiment: SOS-catalyzed nucleotide exchange assay (Procedure A, TR-FRET), KRAS-G12V; assay type: biochemical; details: nucleotide exchange, read-out: KRAS G12V GNE IC50
Sequence (P01116 with tags, fused parts or gaps isoform P01116-2 G12V): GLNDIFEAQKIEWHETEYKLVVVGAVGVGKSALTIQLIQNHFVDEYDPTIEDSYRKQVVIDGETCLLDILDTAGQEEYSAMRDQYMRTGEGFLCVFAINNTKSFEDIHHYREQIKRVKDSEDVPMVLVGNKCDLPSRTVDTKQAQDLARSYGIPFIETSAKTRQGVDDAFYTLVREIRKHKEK
Notebook: values listed as pIC50 are -log10 of the concentration (mol/L).

Examples with their reported pIC50 follow.
- compound: "C[C@@]1(O)COCCN(c2nc(OC[C@@]34CCCN3C[C@H](F)C4)nc3sc4c(-c5c(C(F)F)c(C(F)(F)F)cc6[nH]ncc56)nccc4c23)C1 [Ex-61]"
  readout-type: "pIC50"
  measured-number: 6.63
- compound: "C#Cc1c(F)ccc2cc3[nH]ncc3c(-c3nccc4c5c(N6CCOC[C@@](C)(O)C6)nc(OC[C@@]67CCCN6C[C@H](F)C7)nc5n(C)c34)c12 [Ex-25]"
  readout-type: "pIC50"
  measured-number: 7.05

For the next question, use this compound.
Query: Quick one: pIC50 of COCc1cc2[nH]ncc2c(-c2nccc3c2sc2nc(OC[C@@]45CCCN4C[C@H](F)C5)nc(N4CCOC[C@@](C)(O)C4)c23)c1C1CC1 [Ex-50] ?
Result: 6.54

====

target: KRAS-G12D (Homo sapiens, UniProt P01116, G12D); test: SOS-catalyzed nucleotide exchange assay (Procedure A, TR-FRET), KRAS-G12D; type: biochemical; conditions: KRAS G12D GNE IC50, nucleotide exchange
Sequence (P01116 with tags, fused parts or gaps isoform P01116-2 G12D): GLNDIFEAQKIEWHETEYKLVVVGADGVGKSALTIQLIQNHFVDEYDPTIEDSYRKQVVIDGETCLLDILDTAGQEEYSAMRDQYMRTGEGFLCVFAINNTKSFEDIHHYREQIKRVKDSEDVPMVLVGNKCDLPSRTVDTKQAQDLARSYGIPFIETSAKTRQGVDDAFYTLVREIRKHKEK
Labelling field: enter yes (1) if recorded IC50 is less than 0.02 µM. Enter no (0) if it equals or exceeds that cut-off.

Field: example entries. Status: answers known.
- molecule: "C[C@@]1(O)COCCN(c2nc(OC[C@@]34CCCN3C[C@H](F)C4)nc3sc4c(-c5c6cc(F)ccc6cc6[nH]ncc56)nccc4c23)C1 [Ex-172]"
  class-name: "no (0)"
- molecule: "C[C@@]1(O)COCCN(c2nc(OC[C@@]34CCCN3C[C@H](F)C4)nc3sc4c(-c5c6c(cc7[nH]ncc57)CCC6=C(F)F)nccc4c23)C1 [Ex-177]"
  class-name: "no (0)"

Query: I'd appreciate it if you could check whether C[C@@]1(O)COCCN(c2nc(OC[C@@]34CCCN3C[C@H](F)C4)nc3[se]c4c(-c5c(C6CC6)c(Cl)cc6[nH]ncc56)nccc4c23)C1 [Ex-289] has IC50 smaller than 0.02 µM.
Result: yes (1)

Query: And for C[C@@]1(O)COCCN(c2nc(OC[C@@]34CCCN3C[C@H](F)C4)nc3sc4c(-c5cccc(Cl)c5[Si](C)(C)C)nccc4c23)C1 [Ex-123] ?
Result: no (0)

Query: And for C[C@@]1(O)COCCN(c2nc(OC[C@]3(CN4CC5(CCC5)C4)CC3(F)F)nc3sc4c(-c5c(C6(F)CC6)c(Cl)cc6[nH]ncc56)nccc4c23)C1 [Ex-256] ?
Result: yes (1)

Query: And for Cc1cc2[nH]ncc2c(-c2nccc3c2[se]c2nc(OC[C@@]45CCCN4C[C@H](F)C5)nc(N4CCOC[C@@](C)(O)C4)c23)c1C(F)(F)F [Ex-288] ?
Result: no (0)

====

molecular target: KRAS-G12V (Homo sapiens, UniProt P01116, G12V); test: SOS-catalyzed nucleotide exchange assay (Procedure A, TR-FRET), KRAS-G12V; format: biochemical; details: nucleotide exchange, read-out: KRAS G12V GNE IC50
Here the recorded pIC50 is given for each entry.
Notebook: values listed as pIC50 are -log10 of the concentration (mol/L).

- compound: "C#Cc1c(C)cc2[nH]ncc2c1-c1nccc2c1sc1nc(OC[C@@]34CCCN3C[C@H](F)C4)nc(N3CCOC[C@@](C)(O)C3)c12"
  readout-type: "pIC50"
  measured-number: 7.54
- compound: "C[C@@H]1CN(C[C@@]2(COc3nc(N4CCOC[C@@](C)(O)C4)c4c(n3)sc3c(-c5c(C6(F)CC6)c(Cl)cc6[nH]ncc56)nccc34)CC2(F)F)CCO1"
  readout-type: "pIC50"
  measured-number: 6.48
- compound: "C[C@@]1(O)COCCN(c2nc(OC[C@]3(CN4C[C@H]5COC[C@H]5C4)CC3(F)F)nc3sc4c(-c5c(C6(F)CC6)c(Cl)cc6[nH]ncc56)nccc4c23)C1"
  readout-type: "pIC50"
  measured-number: 7.71
- compound: "Cc1cc2[nH]ncc2c(-c2nccc3c4c(N5CCOC[C@@](C)(O)C5)nc(OC[C@@]56CCCN5C[C@H](F)C6)nc4n(C)c23)c1C(F)(F)F (single isomer, unassigned)"
  readout-type: "pIC50"
  measured-number: 7.26
- compound: "Cc1cc2[nH]ncc2c(-c2nccc3c2sc2nc(OC[C@@]45CCCN4C[C@H](F)C5)nc(N4CCOC[C@@](C)(O)C4)c23)c1-c1cccs1"
  readout-type: "pIC50"
  measured-number: 6.61

For the next question, use this compound.
Query: Quick one: pIC50 of `CC1=CCc2cc3[nH]ncc3c(-c3nccc4c3sc3nc(OC[C@@]56CCCN5C[C@H](F)C6)nc(N5CCOC[C@@](C)(O)C5)c34)c21` ?
Result: 7.51

====

target: UniProtKB P01116; assay: SOS-catalyzed nucleotide exchange assay (Procedure A, TR-FRET), KRAS-WT; type: biochemical; details: nucleotide exchange, read-out: KRAS WT GNE IC50
readout-type: pIC50
Notebook: values listed as pIC50 are -log10 of the concentration (mol/L).

- compound: "C[C@@]1(O)COCCN(c2nc(OC[C@@]34CCCN3C[C@H](F)C4)nc3sc4c(-c5c(C(F)F)c(Cl)cc6[nH]ncc56)nccc4c23)C1"
  system: "UniProtKB P01116"
  pIC50: 6.60
- compound: "C=C1CN2CC(=C)CC2(COc2nc(N3CCOC[C@@](C)(O)C3)c3c(n2)sc2c(-c4c(C5CC5)c(Cl)cc5[nH]ncc45)nccc23)C1"
  system: "UniProtKB P01116"
  pIC50: 7.40
- compound: "Cc1cc2[nH]ncc2c(-c2nccc3c2sc2nc(OC[C@@]45CCCN4C[C@H](F)C5)nc(N4CCOC[C@@](C)(O)C4)c23)c1C1(F)CC1"
  system: "UniProtKB P01116"
  pIC50: 7.97
- compound: "C[C@@]1(O)COCCN(c2nc(OC[C@@]34CCCN3C[C@H](F)C4)nc3sc4c(-c5c6c(cc7[nH]ncc57)CC5CC65)nccc4c23)C1 (some centres unmarked)"
  system: "UniProtKB P01116"
  pIC50: 6.82
- compound: "C[C@@]1(O)COCCN(c2nc(OC[C@@]34CCCN3C[C@H](F)C4)nc3c(F)c4c(-c5c(C6CC6)c(Cl)cc6[nH]ncc56)nccn4c23)C1"
  system: "UniProtKB P01116"
  pIC50: 7.43
- compound: "Cc1cc2[nH]ncc2c(-c2nccc3c2C2(CC2)c2nc(OC[C@@]45CCCN4C[C@H](F)C5)nc(N4CCOC[C@@](C)(O)C4)c2-3)c1C(F)(F)F (single isomer, unassigned)"
  system: "UniProtKB P01116"
  pIC50: 7.65
- compound: "Cc1cc2[nH]ncc2c(-c2nccc3c2oc2nc(OC[C@]4(CN(C)C)CC4(F)F)nc(N4CCOC[C@@](C)(O)C4)c23)c1C(F)(F)F"
  system: "UniProtKB P01116"
  pIC50: 6.42
- compound: "Cc1cc2[nH]ncc2c(-c2nccc3c4c(N5CCOC[C@@](C)(O)C5)nc(OC[C@]5(CN(C)C)CC5(F)F)nc4n(C)c23)c1C(F)F (single isomer, unassigned)"
  system: "UniProtKB P01116"
  pIC50: 7.07

Query: Quick one: pIC50 of `C[C@@]1(O)COCCN(c2nc(OC[C@]3(CN4[C@@H]5CC[C@H]4C[C@H](F)C5)CC3(F)F)nc3sc4c(-c5c(C6(F)CC6)c(Cl)cc6[nH]ncc56)nccc4c23)C1` ?
Result: 6.31

Query: And for `C[C@@]1(O)COCCN(c2nc(OC[C@@]34CCCN3C[C@@]3(CC3(F)F)C4)nc3sc4c(-c5c(C6CC6)c(Cl)cc6[nH]ncc56)nccc4c23)C1` ?
Result: 7.78

Query: And for `CN(C)C[C@@]1(COc2nc(N3CCOC[C@@](C)(O)C3)c3c(n2)sc2c(-c4c(C5(F)CC5)c(Cl)cc5[nH]ncc45)nccc23)CC1(F)F` ?
Result: 7.81

====

molecular target: KRAS-G12C (C51S/C80L/C118S) (Homo sapiens, UniProt P01116, C118S/C51S/C80L/G12C); experiment: SOS-catalyzed nucleotide exchange assay (Procedure A, TR-FRET), KRAS-G12C; type: biochemical; details: nucleotide exchange, Procedure A; read-out: KRAS G12C GNE IC50
Sequence (P01116 with tags, fused parts or gaps isoform P01116-2 G12C/C51S/C80L/C118S): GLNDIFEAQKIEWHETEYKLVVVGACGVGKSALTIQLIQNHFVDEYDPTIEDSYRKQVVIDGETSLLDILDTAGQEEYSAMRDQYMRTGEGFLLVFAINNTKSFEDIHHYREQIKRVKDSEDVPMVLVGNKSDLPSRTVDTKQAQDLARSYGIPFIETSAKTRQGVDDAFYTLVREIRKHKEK
readout-type: pIC50
Notebook: values listed as pIC50 are -log10 of the concentration (mol/L).

- structure: "Cc1cc2[nH]ncc2c(-c2ncnc3c2sc2nc(OC[C@@]45CCCN4C[C@H](F)C5)nc(N4CCOC[C@@](C)(O)C4)c23)c1C(F)(F)F"
  measured-number: 6.90

Query: Quick one: pIC50 of `C[C@@]1(O)COCCN(c2nc(OC[C@@]34CCCN3C/C(=C\F)C4)nc3sc4c(-c5c(C6CC6)c(Cl)cc6[nH]ncc56)nccc4c23)C1` ?
Result: 7.35

Query: And for `CCn1c2nc(OC[C@@]34CCCN3C[C@H](F)C4)nc(N3CCOC[C@@](C)(O)C3)c2c2ccnc(-c3c(C(F)(F)F)c(C)cc4[nH]ncc34)c21` ?
Result: 6.65
